Data origin: patent US6844353B2

# Test system: C. fragariae
# protocol_text: 96-well microtiter plate assay, fungal growth inhibition
# Assay type: cell-based, Colletotrichum fragariae
# recorded_conditions: Colletotrichum fragariae, 72 h, read-out: Percent inhibition−Percent Stimulation±SEM
Tick 1 if inhibition at 0.3 µM is 40% or greater. Tick 0 if inhibition at 0.3 µM is less than 40%.

Reference set (4 entries):
Given O=C1C2CC=CCC2C(=O)N1SC(Cl)(Cl)Cl (centres unmarked) , state whether its inhibition at 0.3 µM is at least 40%. 0

Given `CC(C)NC(=O)N1CC(=O)N(c2cc(Cl)cc(Cl)c2)C1=O` , state whether its inhibition at 0.3 µM is at least 40%. 0

Given `Cc1cc(C2CC2)nc(Nc2ccccc2)n1` , state whether its inhibition at 0.3 µM is at least 40%. 1

Given `CC1(C(=O)Nc2ccc(O)c(Cl)c2Cl)CCCCC1` , state whether its inhibition at 0.3 µM is at least 40%. 0

Then there is this compound:
Given `CCCCNC(=O)n1c(NC(=O)OC)nc2ccccc21` , state whether its inhibition at 0.3 µM is at least 40%. 0

----------
# System: C. gloeosporioides
# protocol_text: 96-well microtiter plate assay, fungal growth inhibition
# Assay type: cell-based, Colletotrichum gloeosporioides
# recorded_conditions: Colletotrichum gloeosporioides, 72 h, read-out: Percent inhibition−Percent Stimulation±SEM
# Method: Pathogen production. […] Inoculum preparation. […] Conidia concentrations were determined photometrically, from a standard curve based on the percent of transmittance (% T) at 625 nm and suspensions were then adjusted with sterile distilled water to a concentration of 1.0×10^6 conidia/mL. Microtiter assay. […] Growth was then evaluated by measuring absorbance of each well at 620 nm using a microplate photometer (Packard Spectra Count, Packard Instrument Co., Downers Grove, Ill.). […]
Documented inhibition at 0.3 µM across a set of compounds
Write down the numeric answer in % and omit the unit.

# count of solved cases: 4
For the compound `CC(C)NC(=O)N1CC(=O)N(c2cc(Cl)cc(Cl)c2)C1=O` , report inhibition at 0.3 µM. -17.5

For the compound `CC1(C(=O)Nc2ccc(O)c(Cl)c2Cl)CCCCC1` , report inhibition at 0.3 µM. -11.3

For the compound `Cc1cc(C2CC2)nc(Nc2ccccc2)n1` , report inhibition at 0.3 µM. 55.7

For the compound `CCCCNC(=O)n1c(NC(=O)OC)nc2ccccc21` , report inhibition at 0.3 µM. 16.1

***
For the compound O=C1C2CC=CCC2C(=O)N1SC(Cl)(Cl)Cl (centres unmarked) , report inhibition at 0.3 µM. -15.3

----------
Documented Percent inhibition−Percent Stimulation±SEM across a set of compounds
# Test system: C. gloeosporioides
# protocol_text: 96-well microtiter plate assay, fungal growth inhibition
# Type: cell-based, Colletotrichum gloeosporioides
# recorded_conditions: C. gloeosporioides; 3.0 μM; 48 hrs
# Description: Pathogen production. […] Inoculum preparation. […] Conidia concentrations were determined photometrically, from a standard curve based on the percent of transmittance (% T) at 625 nm and suspensions were then adjusted with sterile distilled water to a concentration of 1.0×10^6 conidia/mL. Microtiter assay. […] Growth was then evaluated by measuring absorbance of each well at 620 nm using a microplate photometer (Packard Spectra Count, Packard Instrument Co., Downers Grove, Ill.). […]
Write down the numeric answer in % and omit the unit.

Provide C. gloeosporioides Percent inhibition−Percent Stimulation±SEM reading for O=C1c2ccccc2-c2nccc3c2c1nc1ccccc13 [Benzo[4,5]sampangine, benzo[4,5]sampangine] . −98.6

Provide C. gloeosporioides Percent inhibition−Percent Stimulation±SEM reading for N#CC(CCc1ccc(Cl)cc1)(Cn1cncn1)c1ccccc1 (centres unmarked) . −95.0

Provide C. gloeosporioides Percent inhibition−Percent Stimulation±SEM reading for `COc1cnc2c3c(nccc13)-c1ccccc1C2=O` . −94.4

Provide C. gloeosporioides Percent inhibition−Percent Stimulation±SEM reading for `O=C1c2ccccc2-c2nccc3c(Br)cnc1c23` . −98.9

***
Provide C. gloeosporioides Percent inhibition−Percent Stimulation±SEM reading for `CO/N=C(/C(=O)OC)c1ccccc1COc1ccccc1C` . −92.4
